Tested on: NCI-H522 lung
Assay: NCI-60 one-dose screen, 48 h (100 = growth as untreated, 0 = no growth, -100 = all killed)
Details: 10 µM unless noted
About 83,000 compounds went through this panel and 20% of them were active in at least one assay; those are over-represented in the sample as a whole.
Measured growth by item
The reply should be a number in %, with the unit left off.

Would you please look over these solved cases?
compound="CN1C(=O)N(C)C2NC(N/N=C/c3ccccc3)=NC21 (stereo unspecified)" target_desc="NCI-H522 lung" measured_quantity=growth value_units=% recorded_value=104
compound="CCC(C)N(CCNc1cc(OC)cc2cccnc12)CCC(C)C (stereo unspecified)" target_desc="NCI-H522 lung" measured_quantity=growth value_units=% recorded_value=50
compound=Cc1ccccc1-c1cc(Cc2ccc(F)cc2)c(=O)[nH]n1 target_desc="NCI-H522 lung" measured_quantity=growth value_units=% recorded_value=95.1
compound=CCNC(=O)c1[nH]cc(-c2ccc(OC)cc2)c1-c1cc(OC)cc(OC)c1 target_desc="NCI-H522 lung" measured_quantity=growth value_units=% recorded_value=62.6
compound=CCC(=O)c1ccc(O)c(OC)c1 target_desc="NCI-H522 lung" measured_quantity=growth value_units=% recorded_value=88.2

Incoming: Tell us which growth value is on record for COc1cccc(/C=C2\COc3ccc(-c4ccccc4)cc3C2=O)c1
Outgoing: 25.2
